Provide the reported pIC50 of each item.
molecular target: UniProt:P36639; assay: MTH1 enzymatic assay and IC50 value determination (malachite green); assay type: biochemical; conditions: MTH1 4.8 nM, dGTP 100 μM, 15 minutes at 22° C.; group: between 2 μM and 10 μM
pIC50: −log10 of the molar value.

**Query** Reported pIC50, compound CNc1cc(-c2ccccn2)nc(N)n1 [Example 78] : ____
**Result** 5.00 to 5.70

**Query** Which measured pIC50 value corresponds to CCOC(=O)CNc1cc(-c2cccc(C)c2C)nc(N)n1 [Example 396] ?
**Result** 5.00 to 5.70

**Query** Dear colleague, I am looking for the recorded pIC50 of the following compound: Cc1ccc(S(=O)(=O)n2cc(-c3cc(NCC(C)(C)C)nc(N)n3)c3ccccc32)cc1 [Example 182]
**Result** 5.00 to 5.70

**Query** I am curious: what pIC50 value has been reported for Cc1ccc(S(=O)(=O)N2CCOCC2)cc1-c1cc(NCCCN2CCCC2=O)nc(N)n1 [Example 289] ?
**Result** 5.00 to 5.70

**Query** Which pIC50 is listed for Nc1nc(NC2CCOCC2)cc(-c2ccc(Cl)cc2)n1 [Example 15] ?
**Result** 5.00 to 5.70

**Query** GET /values?readout=pIC50&item= CC(C)(C)Nc1cc(-c2ccc(Cl)cc2)nc(N)n1 [Example 14]
**Result** 5.00 to 5.70

**Query** Consider the compound Cc1cccc(-c2cc(NC3CCN(C(=O)OC(C)(C)C)CC3)nc(N)n2)c1C [Example 237] and give its measured pIC50.
**Result** 5.00 to 5.70

**Query** Recorded pIC50 for Nc1nc(NC2CCOCC2)cc(-c2cccc(Cl)c2)n1 [Example 21] , please?
**Result** 5.00 to 5.70

**Query** What value of pIC50 has been reported for the following compound? Cc1ccc(S(=O)(=O)n2cc(-c3cc(NC(C)(C)C)nc(N)n3)c3ccccc32)cc1 [Example 161]
**Result** 5.00 to 5.70

**Query** Can you look up the measured pIC50 of Cc1cccc(-c2cc(NCC(C)(C)C)nc(N)n2)c1C [Example 181] for me?
**Result** 5.00 to 5.70

**Query** Name the reported pIC50 value associated with the compound Cc1cccc(-c2cc(N[C@H](C)C3CC3)nc(N)n2)c1C [Example 166]
**Result** 5.00 to 5.70

**Query** Reported pIC50, compound C[C@@H](Nc1cc(-c2cccc(Cl)c2Cl)nc(N)n1)C1CC1 [Example 179] : ____
**Result** 5.00 to 5.70

**Query** What does the record list as pIC50 for Cc1ccc(S(=O)(=O)n2cc(-c3cc(N[C@H](C)C4CC4)nc(N)n3)c3ccccc32)cc1 [Example 167] ?
**Result** 5.00 to 5.70

**Query** Look at this compound and give its reported pIC50. Cc1nnc(CNc2cc(-c3cccc(C)c3C)nc(N)n2)[nH]1 [Example 399]
**Result** 5.00 to 5.70

**Query** What does the data say about its pIC50? Entry: Cc1cccc(-c2cc(N[C@@H]3CN4CCC3CC4)nc(N)n2)c1C [Example 281]
**Result** 5.00 to 5.70

**Query** Given the compound C[C@@H]1[C@H]2C[C@@H](C[C@H]1Nc1cc(-c3cccc(Cl)c3Cl)nc(N)n1)C2(C)C [Example 299] , what is its reported pIC50?
**Result** 5.00 to 5.70

**Query** Given Cc1cccc(-c2cc(NC3CCCCC3NC(=O)OC(C)(C)C)nc(N)n2)c1C (mixture of isomers) [Example 372] , state its recorded pIC50.
**Result** 5.00 to 5.70

**Query** Which pIC50 value belongs to Nc1nc(NCCN2CCOCC2)cc(-c2ccccc2)n1 [Example 12] ?
**Result** 5.00 to 5.70
